- System: KARPAS-422 cells
- protocolDetails: Cell proliferation analysis, KARPAS-422, 13 days, CellTiter-Glo
- Format: cell-based
- setupConditions: Homo sapiens, 312 h
measure: IC50 (µM)

                                givensmiles  recordedmeasurement
0  Fc1ccc2c(c1CNc1ncc(-c3ccc(N4CC5(COC5)C4)n4ncnc34)c3nncn13)CCO2               0.0018
1  CN(C)c1ccc(-c2cnc(NCc3c(F)ccc4c3CCO4)n3cnnc23)c2ncc(C#N)n12               0.0009
2  Cc1ccc(-c2cnc(NCc3c(F)ccc4c3[C@H]3C[C@H]3O4)n3cnnc23)c2ncnn12               0.0044
3  Fc1ccc2c(c1CNc1ncc(-c3ccc(N4CCCC4)n4ncnc34)c3nncn13)CCO2               0.0032
4  O=S1(=O)C=c2ccc(-c3cnc(NCc4c(F)ccc5c4CCO5)n4cnnc34)cc2=C1               0.0004
5  Fc1ccc2c(c1CNc1ncc(-c3cccc4nsnc34)c3nncn13)CCO2                0.014
6  Fc1ccc2c(c1CNc1ncc(-c3ccn4ccnc4c3)c3nncn13)CCO2               0.0165
7  CC(=O)OCCc1cnc2c(-c3cnc(NCc4c(F)ccc5c4CCO5)n4cnnc34)ccc(C)n12               0.0017
8  Cc1cc(-c2cnc(NCc3c(F)ccc4c3CCO4)n3cnnc23)c2nccn2c1               0.0116

* * *

- system: EED protein (His6-tagged full-length) binding to H3K27me3 polypeptide (Homo sapiens, UniProt O75530)
- Construct: His6-tagged full-length EED protein (441 amino acids)
- Sequence (O75530 whole entry): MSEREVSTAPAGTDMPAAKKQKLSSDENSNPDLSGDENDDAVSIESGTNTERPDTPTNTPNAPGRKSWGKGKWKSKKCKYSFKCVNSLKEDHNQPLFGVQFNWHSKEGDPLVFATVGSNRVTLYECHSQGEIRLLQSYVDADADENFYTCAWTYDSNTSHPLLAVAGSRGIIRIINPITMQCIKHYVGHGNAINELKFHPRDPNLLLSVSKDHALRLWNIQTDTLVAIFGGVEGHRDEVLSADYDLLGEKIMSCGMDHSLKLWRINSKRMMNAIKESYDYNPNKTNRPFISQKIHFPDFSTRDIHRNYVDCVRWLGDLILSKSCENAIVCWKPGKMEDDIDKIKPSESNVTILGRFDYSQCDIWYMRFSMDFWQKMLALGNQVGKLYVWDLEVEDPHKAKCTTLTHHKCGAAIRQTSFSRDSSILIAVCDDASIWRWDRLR
- protocolDetails: AlphaScreen evaluation of blocking the binding of EED to H3K27Me3
- setupConditions: EED 60 nM, biotinylated H3K27me3 75 nM, 30 minutes incubation
Below, each of the molecules is paired with its reported log10(IC50) value.
measure: log10(IC50) (log10 of the value in µM)

                                 givensmiles  recordedmeasurement
 0  O=S1(=O)C=c2ccc(-c3cnc(NCc4c(F)ccc5c4CCO5)n4cnnc34)cc2=C1                -2.31
 1  CC1=C(C)S(=O)(=O)c2c(F)cc(-c3cnc(NCc4c(F)ccc5c4CCO5)n4cnnc34)cc21                -2.70
 2  Cc1ccc(-c2cnc(NCc3c(F)ccc4c3CCO4)n3cnnc23)c2nccn12                -2.24
 3  CC1=C(F)S(=O)(=O)c2ccc(-c3cnc(NCc4c(F)ccc5c4[C@H]4C[C@H]4O5)n4cnnc34)cc21                -2.39
 4  Cc1cc(-c2cnc(NCc3c(F)ccc4c3CCO4)n3cnnc23)c2nccn2c1                -1.61
 5  CCc1cnc2c(-c3cnc(NCc4c(F)ccc5c4CCO5)n4cnnc34)ccc(C)n12                -2.52
 6  CCc1cnc2c(-c3cnc(NCc4c(F)ccc5c4CCO5)n4cnnc34)cccn12                -2.60
 7  O=S1(=O)C=Cc2cc(-c3cnc(NCc4c(F)ccc5c4[C@@H]4C[C@@H]4O5)n4cnnc34)ccc21                -1.82
 8  CC1=Cc2ccc(-c3cnc(NCc4c(F)ccc5c4CCO5)n4cnnc34)cc2S1(=O)=O                -2.57
 9  Cn1cnc2c(-c3cnc(NCc4c(F)ccc5c4CCO5)n4cnnc34)cccc21                -2.07
10  Fc1ccc2c(c1CNc1ncc(-c3cnn4cccnc34)c3nncn13)CCO2                -2.68
11  O=S1(=O)C=Cc2c(-c3cnc(NCc4c(F)ccc5c4CCO5)n4cnnc34)cccc21                -2.00
12  Fc1ccc2c(c1CNc1ncc(-c3cccn4c(F)cnc34)c3nncn13)CCO2                -2.04
13  Fc1ccc2c(c1CNc1ncc(-c3ccc4nccn4c3)c3nncn13)CCO2                -1.37
14  Cc1ccc(-c2cnc(NCc3c(F)ccc4c3CCO4)n3cnnc23)c2ncc(CC(=O)O)n12                -2.27
15  O=S1(=O)C=c2ccc(-c3cnc(NCc4c(F)ccc5c4CCCO5)n4cnnc34)cc2=C1                -2.19
16  O=S1(=O)C=c2cc(-c3cnc(NCc4c(F)ccc5c4[C@H]4C[C@H]4O5)n4cnnc34)ccc2=C1F                -0.73
17  Fc1ccc2c(c1CNc1ncc(-c3ccc4ccnn4c3)c3nncn13)CCO2                -2.37
18  NC(=O)c1cnc2c(-c3cnc(NCc4c(F)ccc5c4CCO5)n4cnnc34)cccn12                -2.46
